- Tested on: soybean
- experiment_description: Foliar spread test for upland field
- Assay type: in vivo
- Parameters: key: 0 = normal development, 5 = all killed (6 ranks vs. untreated)
- assay_context: foliar spray, 500 ppm, 3 weeks, glass house 25° C.
observed_property: Effects Soybean
In your answer, state the number alone without any accompanying words.

Input: Give measured Effects Soybean for "CCCC(=Cc1cccc(C(F)(F)F)c1)c1nc2cc(F)c(F)cc2o1" (soybean).
Output: 5

Input: # lookup: soybean Effects Soybean, key = "FC(F)(F)c1cccc(Oc2cccc(-c3nc4ccccc4o3)n2)c1"
Output: 5

Input: State the measured Effects Soybean (soybean) of "CCCC(=Cc1cccc(C(F)(F)F)c1)c1nc2cc(C#N)c(Cl)cc2o1"
Output: 5

Input: Give soybean Effects Soybean for the following molecule: "Fc1ccc2oc(-c3cccc(Oc4cccc(C(F)(F)F)c4)n3)nc2c1"
Output: 3

Input: Provide measured Effects Soybean on soybean for "FC(F)(F)c1cccc(Oc2cccc(-c3nc4cc(Cl)ccc4o3)n2)c1" please.
Output: 3

Input: Consider the molecule "CC/C(=C\c1ccc(F)c(C(F)(F)F)c1)c1nc2cc(Cl)ccc2o1" tested on soybean; state its Effects Soybean.
Output: 4

Input: Provide soybean Effects Soybean reading for "CCC(=Cc1cccc(C(F)(F)F)c1)c1nc2cc(F)ccc2o1" .
Output: 5

Input: Identify measured Effects Soybean obtained with soybean for "CCCC(=Cc1cccc(C(F)(F)F)c1)c1nc2cc(C#N)c(F)cc2o1" .
Output: 5

Input: Look up and report Effects Soybean, with soybean as system, for CCC(F)(Cc1ccc(F)c(C(F)(F)F)c1)c1nc2cc(Cl)ccc2o1 (stereo not shown)
Output: 5

Input: Quote soybean Effects Soybean for entry "Fc1ccc2nc(-c3cccc(Oc4ccc(F)c(C(F)(F)F)c4)n3)oc2c1" .
Output: 3

###

For each of the molecules below, state its Effects Common lambsquarters.
- System: common lambsquarters
- experiment_description: Foliar spread test for upland field
- Type: in vivo, Chenopodium album
- Parameters: key: 0 = normal development, 5 = all killed (6 ranks vs. untreated)
- assay_context: foliar spray, 500 ppm, 3 weeks, glass house 25° C.
The answer should be written as a number, with no unit following it.

Input: Give a short answer stating reported Effects Common lambsquarters for "CCCC(=Cc1cccc(C(F)(F)F)c1)c1nc2cc(C#N)c(F)cc2o1" .
Output: 5

Input: Provide Effects Common lambsquarters value for the following molecule: "CCC(=Cc1cccc(C(F)(F)F)c1)c1nc2cc(Cl)c(C)cc2o1"
Output: 5

Input: State its Effects Common lambsquarters for this molecule: "CCC(=Cc1cccc(C(F)(F)F)c1)c1nc2cc(F)ccc2o1"
Output: 5

Input: For the molecule CCC(Oc1cc(C(F)(F)F)on1)c1nc2cc(C#N)c(F)cc2o1 (stereo not shown) , give its reported Effects Common lambsquarters.
Output: 5

###

Assign Effects Soybean to each entry below.
- Test system: soybean
- experiment_description: Foliar spread test for upland field
- Format: in vivo
- Parameters: key: 0 = normal development, 5 = all killed (6 ranks vs. untreated)
- assay_context: foliar spray, 500 ppm, 3 weeks, glass house 25° C.
Hey, just send me the number, nothing else.

Input: Report measured Effects Soybean; entry is CCCC(=Cc1cccc(C(F)(F)F)c1)c1nc2cc(Cl)ccc2o1 [I-c-57]
Output: 5

Input: Output Effects Soybean of N#Cc1ccc2oc(-c3cccc(Oc4cccc(C(F)(F)F)c4)n3)nc2c1 [I-a-18]
Output: 3

Input: Annotate the molecule CCC(=Cc1cccc(C(F)(F)F)c1)c1nc2cc(C(F)(F)F)ccc2o1 [I-c-86] with its measured Effects Soybean.
Output: 5

Input: Tell me measured Effects Soybean for CCC(=Cc1cccc(C(F)(F)F)c1)c1nc2ccc([N+](=O)[O-])cc2o1 [I-c-15] please.
Output: 5

Input: Respond only with Effects Soybean recorded for COc1ccc2oc(-c3cccc(Oc4cccc(C(F)(F)F)c4)n3)nc2c1 [I-a-4]
Output: 2

Input: // fetch Effects Soybean given entry CCC(=Cc1cccc(C(F)(F)F)c1)c1nc2cc([N+](=O)[O-])ccc2o1 [I-c-72]
Output: 5

Input: // Input: CCC(=Cc1cccc(C(F)(F)F)c1)c1nc2cc(F)c(F)cc2o1 [I-c-111] . Output its Effects Soybean only.
Output: 5

Input: Tell me Effects Soybean reported for CCCC(=Cc1cccc(C(F)(F)F)c1)c1nc2cc(C#N)ccc2o1 [I-c-83]
Output: 4

Input: Return Effects Soybean for the following molecule: CC(=Cc1cccc(C(F)(F)F)c1)c1nc2cc(C#N)c(F)cc2o1 [I-c-135]
Output: 4

Input: Respond only with Effects Soybean recorded for CCC(=Cc1cccc(C(F)(F)F)c1)c1nc2cc(C#N)c(F)cc2o1 [I-c-137]
Output: 5

Input: Assign Effects Soybean to the following record: CC(=Cc1cccc(C(F)(F)F)c1)c1nc2cc(Cl)ccc2o1 [I-c-53]
Output: 4

Input: Return reported Effects Soybean. Input molecule: CCC(=Cc1cccc(C(F)(F)F)c1)c1nc2cc(C)ccc2o1 [I-c-76]
Output: 5

Input: // fetch Effects Soybean given entry CCCC(=Cc1cccc(C(F)(F)F)c1)c1nc2cc(F)ccc2o1 [I-c-44]
Output: 5

Input: For CCC(=Cc1cccc(C(F)(F)F)c1)c1nc2cc(Cl)c(C)cc2o1 [I-c-131] , write its Effects Soybean.
Output: 5

###

Please go through the items and note down their Effects Corn.
- Test system: corn
- experiment_description: Soil treatment test for upland field
- Format: in vivo
- Design: key: 0 = normal development, 5 = all killed
- assay_context: 500 g/ha, 3 weeks, glass house 25° C.
- Procedure: The herbicidal effects are evaluated according to the following 6 ranks as compared with non-treated district. (0: normal development, 1: Less damaged, 2: Slightly damaged, 3: Moderately damaged, 4: Severely damaged, 5: All killed). Incidentally, “-” in the column means not investigated. […] The herbicidal effects were evaluated according to the evaluation method described in the above (1).

Input: In one line, give reported Effects Corn of the entry "CCC(=Cc1cccc(C(F)(F)F)c1)c1nc2cc(C#N)ccc2o1" .
Output: 2

Input: Identify measured Effects Corn corresponding to "CC/C(=C\c1cccc(C(F)(F)F)c1)c1nc2cc(Cl)ccc2o1"
Output: 1

Input: Write down Effects Corn measured for item "CC(=Cc1cccc(C(F)(F)F)c1)c1nc2cc(F)ccc2o1"
Output: 0

Input: Answer with the recorded Effects Corn of CCC(Oc1cc(C(F)(F)F)nn1C)c1nc2cc(Cl)ccc2o1 (stereo not drawn) only.
Output: 0

Input: // Input: "CCCC(=Cc1cccc(C(F)(F)F)c1)c1nc2cc(C#N)ccc2o1" . Output its Effects Corn only.
Output: 2

Input: Answer with the recorded Effects Corn for the molecule listed here: CCCC(Oc1cc(C)nc(SC)n1)c1nc2cc(C#N)c(F)cc2o1 (stereo not drawn)
Output: 0

Input: Fill in reported Effects Corn for this entry: CCC(Oc1cc(C(F)(F)F)no1)c1nc2cc(C#N)c(F)cc2o1 (stereo not drawn)
Output: 0

Input: Let me know recorded Effects Corn for "COc1ccc2oc(-c3cccc(Oc4cccc(C(F)(F)F)c4)n3)nc2c1" , thanks.
Output: 0

Input: Answer with the recorded Effects Corn of "FC(F)(F)c1cccc(Oc2cccc(-c3nc4cc(C(F)(F)F)ccc4o3)n2)c1" only.
Output: 1

###

Assign Effects Barnyardgrass to each entry below.
- Test system: barnyard grass
- experiment_description: Herbicidal test for paddy field
- Format: in vivo, Eschinochloa crusgalli
- assay_context: 500 g/ha, dropwise addition to paddy water at 1.5 leaf stage of barnyard grass; glass house 25° C., 3 weeks; rank 0-5 vs non-treated district
Would you mind answering with just the numeric figure?

Input: Would you please give the reported Effects Barnyardgrass of CCC(Oc1cc(C(F)(F)F)nn1C)c1nc2cc(C#N)c(F)cc2o1 (stereo not drawn) with barnyard grass?
Output: 5

Input: Lab note: record Effects Barnyardgrass of "CCCC(=Cc1cccc(C(F)(F)F)c1)c1nc2cc(C#N)c(F)cc2o1" tested on barnyard grass.
Output: 4

Input: Give barnyard grass Effects Barnyardgrass for the following molecule: CCC(Oc1cc(C(F)(F)F)no1)c1nc2cc(C#N)c(F)cc2o1 (stereo not drawn)
Output: 5
